system: T47D; assay: Antitumor activity against human T47D cells assessed as cell growth at 10 uM after 48 hrs by sulforhodamine B assay; assay type: functional; conditions: read-out: Activity
growth at 10 µM reference
OBSERVED PROPERTY: growth at 10 µM (%)

INSERT INTO results (structure, measured_target, observed_property, assay_value) VALUES
  ('CN1C/C(=C\c2ccc(Cl)cc2)C(=O)[C@]2(C1)[C@@H](c1ccc(Cl)cc1)CN(C)[C@@]21C(=O)N(C)c2ccccc21', 'T47D', 'growth at 10 µM', 46.7),
  ('CN1C/C(=C\c2ccc(-c3cccs3)cc2)C(=O)[C@]2(C1)[C@@H](c1ccc(-c3cccs3)cc1)CN(C)[C@@]21C(=O)N(C)c2ccccc21', 'T47D', 'growth at 10 µM', 22.7),
  ('CN1C/C(=C\c2ccc(Cl)cc2)C(=O)[C@]2(C1)[C@@H](c1ccc(Cl)cc1)CN(C)[C@@]21C(=O)Nc2ccccc21', 'T47D', 'growth at 10 µM', 46.1),
  ('COc1ccc(/C=C2\CN(C)C[C@@]3(C2=O)[C@@H](c2ccccc2)CN(C)[C@@]32C(=O)Nc3ccccc32)cc1', 'T47D', 'growth at 10 µM', 31.6);

====

List of growth at 10 µM values.
tested on: RXF 393; assay: Antitumor activity against human RXF393 cells assessed as cell growth at 10 uM after 48 hrs by sulforhodamine B assay; format: functional; conditions: RXF 393, 48 h, read-out: Activity
OBSERVED PROPERTY: growth at 10 µM (%)

INSERT INTO assay_data (structure, measured_target, assay_value) VALUES
  ('COc1ccc(/C=C2\CN(C)C[C@@]3(C2=O)[C@@H](c2ccccc2)CN(C)[C@@]32C(=O)Nc3ccccc32)cc1', 'RXF 393', 57.8),
  ('CN1C/C(=C\c2ccc(Cl)cc2)C(=O)[C@]2(C1)[C@@H](c1ccc(Cl)cc1)CN(C)[C@@]21C(=O)Nc2ccccc21', 'RXF 393', 67.5),
  ('CN1C/C(=C\c2ccc(-c3cccs3)cc2)C(=O)[C@]2(C1)[C@@H](c1ccc(-c3cccs3)cc1)CN(C)[C@@]21C(=O)N(C)c2ccccc21', 'RXF 393', 55.6),
  ('CN1C/C(=C\c2ccc(Cl)cc2)C(=O)[C@]2(C1)[C@@H](c1ccc(Cl)cc1)CN(C)[C@@]21C(=O)N(C)c2ccccc21', 'RXF 393', 67.2);

====

tested on: MCF7; experiment: Antitumor activity against human MCF7 cells assessed as cell growth at 10 uM after 48 hrs by sulforhodamine B assay; assay type: functional; settings: MCF7, 48 h, read-out: Activity
OBSERVED PROPERTY: growth at 10 µM

INSERT INTO measurements (structure, assay_value) VALUES
  ('COc1ccc(/C=C2\CN(C)C[C@@]3(C2=O)[C@@H](c2ccccc2)CN(C)[C@@]32C(=O)Nc3ccccc32)cc1', '30.9%'),
  ('CN1C/C(=C\c2ccc(Cl)cc2)C(=O)[C@]2(C1)[C@@H](c1ccc(Cl)cc1)CN(C)[C@@]21C(=O)N(C)c2ccccc21', '86.4%'),
  ('CN1C/C(=C\c2ccc(-c3cccs3)cc2)C(=O)[C@]2(C1)[C@@H](c1ccc(-c3cccs3)cc1)CN(C)[C@@]21C(=O)N(C)c2ccccc21', '50.4%'),
  ('CN1C/C(=C\c2ccc(Cl)cc2)C(=O)[C@]2(C1)[C@@H](c1ccc(Cl)cc1)CN(C)[C@@]21C(=O)Nc2ccccc21', '44.9%');
